system: ERK phosphorylation in KYSE-520 cells; test: Phospho-ERK cellular assay (Advanced phospho-ERK1/2 (Thr202/Tyr204) TR-FRET kit); assay type: cell-based; conditions: Homo sapiens, KYSE-520, 2 h, KYSE-520 cells, 2 h at 37° C., TR-FRET; read-out: pERK IC50
pIC50: −log10 of the molar value.
experimental_readout: pIC50

Below: 3 molecules and their reported pIC50.
N[C@@H]1c2ccccc2CC12CCN(c1nc3nc(Sc4cccc5[nH]c(=O)cnc45)cnc3[nH]1)CC2	> 6.00
CNc1nccc(-c2cnc3[nH]c(N4CCC5(CC4)Cc4ccccc4[C@H]5N)nc3n2)c1Cl	< 5.30
Nc1nccc(Sc2cnc3nc(N4CCC5(CC4)Cc4cc(F)ccc4[C@H]5N)[nH]c3n2)c1Cl	> 6.00

Query :: Using the record for N[C@@H]1c2ccccc2CC12CCN(c1nc3nc(Sc4ccc[nH]c4=O)cnc3[nH]1)CC2 , report its pIC50.
Result :: < 5.30

Values were extracted from patent US20220289753A1.
